# studyTarget: DPP-IV activity in rat plasma (Rattus norvegicus)
# Sequence (P14740 37-767 limits assumed): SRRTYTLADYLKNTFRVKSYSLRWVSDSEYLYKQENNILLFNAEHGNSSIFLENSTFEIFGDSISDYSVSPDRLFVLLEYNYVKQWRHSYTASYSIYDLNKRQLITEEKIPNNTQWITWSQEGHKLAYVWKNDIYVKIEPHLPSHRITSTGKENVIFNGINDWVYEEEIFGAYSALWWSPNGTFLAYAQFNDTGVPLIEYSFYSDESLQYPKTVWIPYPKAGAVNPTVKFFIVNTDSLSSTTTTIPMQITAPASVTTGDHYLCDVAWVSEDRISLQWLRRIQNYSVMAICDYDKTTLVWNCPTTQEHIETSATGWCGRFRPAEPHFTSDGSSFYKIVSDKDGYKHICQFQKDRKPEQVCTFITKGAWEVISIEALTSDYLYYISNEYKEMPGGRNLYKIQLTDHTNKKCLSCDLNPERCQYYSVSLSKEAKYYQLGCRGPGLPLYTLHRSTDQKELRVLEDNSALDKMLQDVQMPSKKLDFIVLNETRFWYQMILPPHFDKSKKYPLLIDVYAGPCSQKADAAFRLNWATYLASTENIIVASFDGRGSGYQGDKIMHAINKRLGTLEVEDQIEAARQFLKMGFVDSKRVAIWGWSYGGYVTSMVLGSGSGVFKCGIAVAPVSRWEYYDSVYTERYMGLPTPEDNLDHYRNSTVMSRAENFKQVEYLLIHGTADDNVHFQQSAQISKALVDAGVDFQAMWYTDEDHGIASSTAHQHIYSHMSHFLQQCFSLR
# measurementDescription: rat plasma DPP-IV assay
# conditionSet: substrate H-Glycine-Proline-AMC
pIC50: −log10 of the molar value.
reportedProperty: pIC50

These solved cases illustrate the format of a correct answer.
1) O=C(CNCCNc1ccc(Cl)cn1)N1CCCC1 [Ex. 1] | 5.03
2) N#Cc1ccc(NCCNCC(=O)N2CCCC2)nc1 [Ex. 2A] | 5.36
3) O=C(CNCCNc1ncccn1)N1CCCC1 [Ex. 2B] | 4.55

[1] O=C(CNCCNc1ccccn1)N1CCCC1 [Ex. 2D]
[2] O=C(CNC1(CO)CCCC1)N1CCCC1 [Ex. 2C]
Lowest pIC50? choose 1 or 2 Field: selected label. Fill in the label of the entry you choose.
1
(1: 4.64, 2: 5.11)
